- Tested on: 786-0
- RUN DESCRIPTION: Mitochondrial toxicity in human 786-0 cells at 10 uM incubated with compound for 6 hrs followed by incubation with MitoTracker Red chloromethyl-X-rosamine dye for 45 mins by imaging analysis
- Type: cell-based
- EXPERIMENTAL CONTEXT: 786-0, 6 h
The following molecules are shown together with reported Activity values.
QUANTITY MEASURED: Activity (%)

mol=COc1ccc2oc(-c3csc4ccccc34)c(OC(=O)C(C)(C)C)c(=O)c2c1 quantity_measured=Activity data_value=-47.48
mol=COc1ccc2c(=O)c(O)c(-c3sccc3C)oc2c1 quantity_measured=Activity data_value=-8.17
mol=O=c1c(O)c(-c2csc3ccccc23)oc2cc(F)ccc12 quantity_measured=Activity data_value=-22.29
mol=CCOc1ccc2c(=O)c(O)c(-c3csc4ccccc34)oc2c1 quantity_measured=Activity data_value=29.51
mol=COc1ccc2oc(-c3cc(C)cs3)c(O)c(=O)c2c1 quantity_measured=Activity data_value=-5.29
mol=O=c1c(O)c(-c2ccco2)oc2cc(O)ccc12 quantity_measured=Activity data_value=-1.18
mol=O=c1c(O)c(-c2csc3ccccc23)oc2ccc(Br)cc12 quantity_measured=Activity data_value=-22.7
mol=Cc1ccsc1-c1oc2cc(O)ccc2c(=O)c1O quantity_measured=Activity data_value=-3.38
mol=Cc1ccc2oc(-c3csc4ccccc34)c(O)c(=O)c2c1 quantity_measured=Activity data_value=-21.98
mol=COc1ccc2oc(-c3csc4ccccc34)c(O)c(=O)c2c1 quantity_measured=Activity data_value=-22.85
mol=COc1ccc2oc(-c3ccco3)c(O)c(=O)c2c1 quantity_measured=Activity data_value=-0.99
mol=CCCOc1c(-c2csc3ccccc23)oc2ccc(OC)cc2c1=O quantity_measured=Activity data_value=95.63

These entries and their values trace back to ChEMBL document CHEMBL4311972.
